Biological target: Porcine ventricle myofibrils (ventricular myosin ATPase) (Sus scrofa)
Construct: Myofibrils from porcine cardiac muscle was isolated from the left ventricle of Yucatan minipigs; tissue Exemplar Genetics; host or cells: left ventricle of Yucatan minipigs, myofibrils prepared in house
Sequence (P79293 whole entry): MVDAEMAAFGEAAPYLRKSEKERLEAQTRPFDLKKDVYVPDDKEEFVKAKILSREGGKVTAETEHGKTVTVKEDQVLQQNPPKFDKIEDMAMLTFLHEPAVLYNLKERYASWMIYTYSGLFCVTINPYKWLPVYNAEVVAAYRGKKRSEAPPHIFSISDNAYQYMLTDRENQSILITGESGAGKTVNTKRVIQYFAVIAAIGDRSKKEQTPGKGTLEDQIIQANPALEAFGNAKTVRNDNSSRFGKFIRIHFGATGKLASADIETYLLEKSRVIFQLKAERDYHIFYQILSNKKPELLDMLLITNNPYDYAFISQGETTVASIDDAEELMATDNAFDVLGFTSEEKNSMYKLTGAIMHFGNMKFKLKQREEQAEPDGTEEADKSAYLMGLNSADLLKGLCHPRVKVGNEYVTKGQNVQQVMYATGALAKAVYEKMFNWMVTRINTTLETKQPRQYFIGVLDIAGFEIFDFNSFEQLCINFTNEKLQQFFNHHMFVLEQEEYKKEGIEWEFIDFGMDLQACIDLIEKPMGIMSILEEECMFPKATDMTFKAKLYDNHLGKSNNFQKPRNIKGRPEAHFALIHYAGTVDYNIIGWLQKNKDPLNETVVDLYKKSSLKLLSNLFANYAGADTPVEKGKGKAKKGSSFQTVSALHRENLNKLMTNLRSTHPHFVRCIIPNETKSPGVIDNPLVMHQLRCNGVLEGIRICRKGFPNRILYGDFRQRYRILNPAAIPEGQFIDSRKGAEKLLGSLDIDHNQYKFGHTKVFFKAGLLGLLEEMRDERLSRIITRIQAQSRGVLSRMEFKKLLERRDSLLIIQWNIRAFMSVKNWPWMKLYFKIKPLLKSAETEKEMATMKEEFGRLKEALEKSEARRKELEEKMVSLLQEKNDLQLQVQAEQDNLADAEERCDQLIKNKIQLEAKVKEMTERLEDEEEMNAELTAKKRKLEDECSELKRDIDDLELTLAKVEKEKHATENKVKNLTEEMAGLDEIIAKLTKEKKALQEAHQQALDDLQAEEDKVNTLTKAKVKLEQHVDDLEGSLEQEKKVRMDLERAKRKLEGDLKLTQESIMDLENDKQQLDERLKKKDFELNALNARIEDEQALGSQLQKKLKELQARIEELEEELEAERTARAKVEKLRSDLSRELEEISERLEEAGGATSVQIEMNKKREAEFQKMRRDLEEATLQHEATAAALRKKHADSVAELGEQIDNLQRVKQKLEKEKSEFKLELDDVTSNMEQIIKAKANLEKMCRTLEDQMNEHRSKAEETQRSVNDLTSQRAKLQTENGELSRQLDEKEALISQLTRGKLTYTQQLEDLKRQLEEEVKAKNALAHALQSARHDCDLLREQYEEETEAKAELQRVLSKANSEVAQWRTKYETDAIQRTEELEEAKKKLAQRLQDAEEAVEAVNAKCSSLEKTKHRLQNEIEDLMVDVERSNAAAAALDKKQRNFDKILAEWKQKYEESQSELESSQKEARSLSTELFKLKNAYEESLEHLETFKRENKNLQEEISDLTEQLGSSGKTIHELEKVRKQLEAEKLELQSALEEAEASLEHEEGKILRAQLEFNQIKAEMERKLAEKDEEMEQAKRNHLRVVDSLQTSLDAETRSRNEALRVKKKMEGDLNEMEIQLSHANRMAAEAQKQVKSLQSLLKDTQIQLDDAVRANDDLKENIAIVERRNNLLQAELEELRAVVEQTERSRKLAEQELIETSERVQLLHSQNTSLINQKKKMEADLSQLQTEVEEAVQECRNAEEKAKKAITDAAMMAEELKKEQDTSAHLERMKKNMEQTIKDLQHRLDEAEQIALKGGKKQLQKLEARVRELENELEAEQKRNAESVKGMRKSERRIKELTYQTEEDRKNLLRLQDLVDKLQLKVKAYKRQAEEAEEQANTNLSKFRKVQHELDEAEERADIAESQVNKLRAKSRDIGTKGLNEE
Assay: Myofibril ATPase assay, porcine ventricle myofibrils
Type: biochemical, porcine (Yucatan minipigs)
Details: Y75 value (no ‡ mark); porcine ventricle myofibrils
experimentalReadout: Ventricular EC25 (µM)

> print(dat)
                                   compound  experimentalreadout  quantitativeresult
1  C[C@H](NC(=O)Cc1cc2cc(F)ccc2[nH]c1=O)c1ccc(C#N)cn1 [compound 1126]     Ventricular EC25              100.00
2  Cc1c(CC(=O)N[C@@H](C)c2ccc(F)cc2F)c(=O)[nH]c2cccc(F)c12 [compound 130]     Ventricular EC25                0.15
3  Cc1c(CC(=O)N[C@@H](C)c2ccc(C#N)cn2)c(=O)[nH]c2cccc(F)c12 [compound 54]     Ventricular EC25                1.53
4  C[C@H](NC(=O)Cc1cc2cc(F)c(F)cc2[nH]c1=O)c1ccc(C#N)cn1 [compound 1115]     Ventricular EC25               69.62

====

System: Porcine atria myofibrils (atrial myosin ATPase)
Test: Myofibril ATPase assay, porcine atria myofibrils
Format: biochemical
Conditions: porcine atria myofibrils; Y75 value (75% activity relative to no compound)
Atrial EC25 strictly under 6 µM means true; at 6 µM or over means false.

> print(dat)
                                   compound                        experimentaltarget  labelclass
1  Cc1c(CC(=O)N[C@H](C)c2ccc(F)cc2F)c(=O)[nH]c2ccnc(C#N)c12 [compound 269]  Porcine atria myofibrils (atrial myosin ATPase)       false
2  Cc1nccc2[nH]c(=O)c(CC(=O)N[C@@H](C)c3ccc(F)cc3F)c(C#N)c12 [compound 159]  Porcine atria myofibrils (atrial myosin ATPase)        true
3  Cc1nccc2[nH]c(=O)c(CC(=O)N[C@H](CO)c3ncc(C#N)cc3F)c(C)c12 (single isomer, unassigned) [compound 247]  Porcine atria myofibrils (atrial myosin ATPase)       false
4  C[C@H](NC(=O)Cc1c(C2CC2)c2cnccc2[nH]c1=O)c1ccc(C#N)cn1 [compound 141]  Porcine atria myofibrils (atrial myosin ATPase)       false
5  C[C@H](NC(=O)Cc1c(Cl)c2cnccc2[nH]c1=O)c1ccc(C#N)cn1 [compound 454]  Porcine atria myofibrils (atrial myosin ATPase)       false
6  CNc1nccc2[nH]c(=O)c(CC(=O)N[C@@H](C)c3ccc(F)cc3F)c(C)c12 [compound 354]  Porcine atria myofibrils (atrial myosin ATPase)        true

====

Each record here notes measured Atrial EC25.
Tested on: Porcine atria myofibrils (atrial myosin ATPase)
Assay: Myofibril ATPase assay, porcine atria myofibrils
Assay type: biochemical
Settings: Y75 value (no ‡ mark); porcine atria myofibrils
Description: Example 1. Myofibril ATPase Assay Myofibril ATPase assays are known in the art to be useful in evaluating small molecules for the treatment of HCM and other cardiac indications. Myosin ATPase activity is assessed by using a coupled reaction system, in which ADP generated by the myosin ATPase function is coupled to the disappearance of NADH through the pyruvate kinase/lactate dehydrogenase (PK-LDH) system. […]
experimentalReadout: Atrial EC25

> print(dat)
                                   compound    result
1  O=C(Cc1cc2cc(F)ccc2[nH]c1=O)N1CC[C@@H]2C[C@H]1c1ccccc12 (single isomer, unassigned)  11.52 µM
2  Cc1c(C2(C(=O)N[C@H](C)c3nccc(C#N)n3)CC2)c(=O)[nH]c2ccc(F)cc12 (single isomer, unassigned)  97.50 µM
3  CNc1c(CC(=O)N[C@@H](C)c2ccc(F)cc2F)c(=O)[nH]c2ccccc12   0.90 µM
4  Cc1nc(C#N)ccc1[C@H](C)NC(=O)Cc1c(C)c2c(C)c(F)ccc2[nH]c1=O (single isomer, unassigned)   0.13 µM
